# reported Particle size (nm); entries follow
- assay: Particle size, PDI and zeta potential of mRNA-loaded lipid nanoparticles (Malvern Zetasizer nano)
- Type: physicochemical
- test context: Table 3 batch; luciferase mRNA LNP prepared as Example 20
A number alone suffices; assume nm.

Recorded Particle size (nm), per entry:
CCCCCCCCC(CCCCCCCC)OC(=O)CCCCCCCN(CCO)CCCCCCCOC(=O)C(C)CSCCCCCC (stereo not drawn); 91.0
CCCCC/C=C\C/C=C\CCCCCCCCC(CCCCCCCC/C=C\C/C=C\CCCCC)OC(=O)CCCN(C)C [DLin-MC3-DMA, reference compound]; 101.5
CCCCCCCCC(CCCCCCCC)OC(=O)CCCCCCCN(CCO)CCCCCCCOC(=O)C(C)COCCCCCC (stereo not drawn); 75.4
CCCCCCCCC(CCCCCCCC)C(=O)OCCCCCCCN(CCO)CCCCCCCOC(=O)C(C)CSCCCCCC (stereo not drawn); 80.9
CCCCCCCCOCC(C)C(=O)OCCCCCN(CCO)CCCCCCCOC(=O)C(CCCCCCCC)CCCCCCCC (stereo not drawn); 90.9
CCCCCCCCSCC(C)C(=O)OCCCCCN(CCO)CCCCCCCOC(=O)C(CCCCCCCC)CCCCCCCC (stereo not drawn); 71.1
CCCCCCCCSCC(C)C(=O)OCCCCCN(CCO)CCCCCCCC(=O)OC(CCCCCCCC)CCCCCCCC (stereo not drawn); 80.4
CCCCCCCCC(CCCCCCCC)C(=O)OCCCCCCCN(CCO)CCCCCCCOC(=O)C(C)COCCCCCC (stereo not drawn); 68.2

Attention now shifts to the item below.
query: Reported Particle size (nm), compound CCCCCCCCOCC(C)C(=O)OCCCCCN(CCO)CCCCCCCC(=O)OC(CCCCCCCC)CCCCCCCC (stereo not drawn) : ____
result: 82.9
